Would you mind telling me the reported log10 IC50 of each entry?
# tested system: Mitogen-activated protein kinase 14 (Homo sapiens, UniProt Q16539)
# Sequence (Q16539 whole entry): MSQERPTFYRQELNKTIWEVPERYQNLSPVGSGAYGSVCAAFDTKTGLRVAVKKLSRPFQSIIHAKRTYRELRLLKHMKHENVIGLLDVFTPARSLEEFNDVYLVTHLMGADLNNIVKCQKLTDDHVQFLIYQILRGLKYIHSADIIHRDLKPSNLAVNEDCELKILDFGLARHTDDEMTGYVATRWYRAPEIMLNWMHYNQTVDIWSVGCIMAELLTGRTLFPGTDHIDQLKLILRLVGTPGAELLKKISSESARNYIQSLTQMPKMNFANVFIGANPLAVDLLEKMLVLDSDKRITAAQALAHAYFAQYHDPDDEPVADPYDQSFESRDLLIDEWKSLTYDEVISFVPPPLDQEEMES
# assay name: Competitive inhibition of p38alpha MAP kinase (unknown origin) in presence of 100 uM ATP
Scale type: logarithmic (base 10). Underlying IC50 unit: nM.

# input Any idea what log10 IC50 was measured for CC(=O)OCCOc1ccc2c(c1)C(=O)c1ccc(Nc3ccc(F)cc3F)cc1OC2 ?
# output 1.34

# input And for O=C1c2ccc(Nc3ccc(F)cc3F)cc2OCc2c(OCCC3CCOCC3)cccc21 ?
# output 2.76

# input And for O=C(Nc1ccc(F)c(Nc2ccc3c(c2)OCc2ccc(OCCN4CCOCC4)cc2C3=O)c1)c1ccccc1 ?
# output 0.48

# input And for O=C1c2ccc(Nc3ccc(F)cc3F)cc2OCc2c(OC[C@H](O)CO)cccc21 ?
# output 1.62

# input And for O=c1c2ccccc2ccc2cc(Nc3ccc(F)cc3F)ccc12 ?
# output 3.62

----------
# assay name: Metabolic stability in human/rat liver microsomes at 1 mg/ml after 180 mins by LC/MS analysis
# Assay type: ADME, Microsome
# condition label: read-out: Stability
property label: remaining at 3 h (%)
Answer format: numeric, % implied, no suffix.

# input Any idea what remaining at 3 h was measured for COc1ccc2c(c1)C(=O)c1ccc(Nc3ccc(F)cc3F)cc1CC2 ?
# output 85

# input And for O=C1c2ccc(Nc3ccc(F)cc3F)cc2CCc2ccc(OC[C@@H](O)CO)cc21 ?
# output 100

# input And for O=C1c2ccc(Nc3ccc(F)cc3F)cc2CCc2ccc(O)cc21 ?
# output 70

# input And for O=C1c2ccccc2CCc2cc(Nc3ccc(F)cc3F)ccc21 ?
# output 43

# input And for O=C1c2ccc(Nc3ccc(F)cc3F)cc2CCc2ccc(OCCCO)cc21 ?
# output 90

# input And for O=C1c2ccc(Nc3ccc(F)cc3F)cc2CCc2ccc(OCCO)cc21 ?
# output 86

----------
# tested system: Mitogen-activated protein kinase 14 (Homo sapiens)
# assay name: Inhibition of p38alpha MAP kinase in human whole blood assessed as inhibition of LPS-induced TNFalpha release at 100 uM by ELISA
Would you mind telling me the reported inhibition of each entry?
Answer format: numeric, % implied, no suffix.

# input Any idea what inhibition was measured for Cc1ccccc1Nc1ccc2c(c1)OCc1cc(OCCN3CCOCC3)ccc1C2=O ?
# output 30.3

# input And for O=C(Nc1cc(Nc2ccc3c(c2)OCc2cc(OCCN4CCOCC4)ccc2C3=O)ccc1F)c1ccccc1 ?
# output 36

# input And for CC1(C)OC[C@@H](COc2cccc3c2COc2cc(Nc4ccc(F)cc4F)ccc2C3=O)O1 ?
# output 48.6

# input And for COc1cccc2c1COc1cc(Nc3ccc(F)cc3F)ccc1C2=O ?
# output 44.7

# input And for O=C1c2ccc(Nc3ccc(F)cc3F)cc2OCc2c(OC[C@H](O)CO)cccc21 ?
# output 48.5

# input And for CC1(C)OC[C@H](COc2cccc3c2COc2cc(Nc4ccc(F)cc4F)ccc2C3=O)O1 ?
# output 42.4

# input And for O=C(Nc1ccc(F)c(Nc2ccc3c(c2)OCc2c(OCCN4CCOCC4)cccc2C3=O)c1)c1ccccc1 ?
# output 39

# input And for Nc1cc(F)ccc1Nc1ccc2c(c1)OCc1c(OCCN3CCOCC3)cccc1C2=O ?
# output 38.8

# input And for O=C1c2ccc(Nc3ccc(F)cc3F)cc2OCc2c(OCCN3CCOCC3)cccc21 ?
# output 32.2
